- Measurement Target: human TGR5 (h-TGR5) (Homo sapiens)
- Construct: expressed in transfected cells
- Assay Details: TGR5/CRE-Luciferiase Assay (HEK 293 hTGR5/CRE-Luc cells)
- Format: cell-based
- Condition Parameters: h-TGR5 CRE-Luc EC50, Table 1; read-out: CRE-Luc (EC50)
Readout Type: EC50

The examples below pair each entry with its known result.
- Smiles Notation: "CC(C)(c1ccc(CO)c(Cl)c1)c1cnc(SCc2ccc(F)cc2Cl)n1-c1ccc(F)cc1"
  EC50: "100 to 1000 nM"
- Smiles Notation: "CC(C)(c1ccc(Cl)c(Cl)c1)c1cnc(SCc2ccc(F)cc2Cl)n1-c1ccc(N2CCOCC2)cc1"
  EC50: "1000 to 10000 nM"

Which EC50 reading was recorded for the molecule COc1cc(C(C)(C)c2cnc(SCc3c(F)cc(S(=O)(=O)NCCCNC(=N)N)cc3F)n2-c2ccc(F)cc2)ccc1Cl ?
< 100 nM

----------
I'd be grateful if you could share measured EC50 for these entries.
- Measurement Target: h-TGR5 (Homo sapiens, UniProt Q8TDU6)
- Construct: expressed in transfected cells
- Sequence (Q8TDU6 1-330): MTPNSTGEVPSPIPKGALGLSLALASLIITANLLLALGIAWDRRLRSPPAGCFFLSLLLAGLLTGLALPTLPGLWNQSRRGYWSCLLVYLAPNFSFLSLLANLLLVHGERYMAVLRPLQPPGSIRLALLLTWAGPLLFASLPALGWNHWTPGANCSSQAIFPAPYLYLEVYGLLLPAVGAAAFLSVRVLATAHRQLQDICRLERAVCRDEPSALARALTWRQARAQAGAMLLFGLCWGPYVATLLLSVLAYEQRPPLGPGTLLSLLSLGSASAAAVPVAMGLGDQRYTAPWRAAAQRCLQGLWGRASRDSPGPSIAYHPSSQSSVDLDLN
- Assay Details: TGR5 cAMP Assay using Cisbio cAMP Dynamic2 htrf kit (hTGR5CRE-luc HEK 293 cells)
- Format: cell-based
- Condition Parameters: h-TGR5 cAMP EC50, Table 1; read-out: cAMP (EC50)

List reported EC50 for each of these compounds:
1. COc1cc(-n2c(C(C)(C)c3ccc(F)c(C#N)c3)cnc2SCc2ccc(S(=O)(=O)NC(=O)NC(C)C)cc2Cl)ccc1F
2. CC(C)(c1ccc(Cl)c(Cl)c1)c1cnc(SCc2c(F)cccc2Cl)n1-c1ccc(F)cc1
3. CCOC(=O)NS(=O)(=O)c1ccc(CSc2ncc(C(C)(C)c3ccc(Cl)c(OC)c3)n2-c2ccc(F)cc2)cc1F
4. COc1cc(C(C)(C)c2cnc(SCc3c(F)cc(C(=O)Nc4nnn[nH]4)cc3Cl)n2-c2ccc(F)cc2)ccc1Cl
5. COc1cc(C(C)(C)c2cnc(SCc3ccc(S(=O)(=O)NC(=O)NN4CCCC4)cc3Cl)n2-c2cc(C)c(Cl)cn2)ccc1Cl
6. CC(C)(c1ccc(O)c(O)c1)c1cnc(SCc2c(F)cccc2Cl)n1-c1ccc(F)cc1
7. CC(C)NC(=O)NS(=O)(=O)c1ccc(CSc2ncc(C(C)(C)c3ccc(Cl)c(Cl)c3)n2-c2ccc(F)cc2)c(Cl)c1

< 100 nM
100 to 1000 nM
< 100 nM
< 100 nM
1000 to 10000 nM
100 to 1000 nM
100 to 1000 nM

List reported EC50 for each of these compounds:
1. CC(C)(c1ccc(Cl)cc1)c1cnc(SCc2ccc(S(=O)(=O)NC(=O)NN3CCCC3)cc2Cl)n1-c1ccc(F)cc1F
2. CC(C)(c1ccc(Cl)c(Cl)c1)c1cnc(SCc2c(F)cc(-c3nnn[nH]3)cc2F)n1-c1ccc(F)cc1
3. COc1ccc(C(C)(C)c2cnc(SCc3ccc(S(=O)(=O)NC(=O)NN4CCCC4)cc3Cl)n2-c2ccc(F)cc2)cc1Cl

1: 1000 to 10000 nM; 2: 100 to 1000 nM; 3: 100 to 1000 nM

FYI, the data here is from patent US8785488B2.
